System: BT-549 breast
Experiment: NCI tumour cell line growth inhibition, 48 h
Below: a set of entries, each annotated with reported TGI.
Readout label: TGI (µM)

Compound	Qualifying sign	Measured number
Cn1cc(C=C(C#N)C#N)c(=O)n(C)c1=O	>	100
c1ccc(N=C2SC(c3ccccc3)CN2C23CC4CC(CC(C4)C2)C3)cc1 (stereo not given)	>	100
CC(C)Nc1n[nH]c(=O)n1C(C)C	>	100
CC(C)(C)c1ccc(NC(=O)c2cc(=O)c3ccccc3[nH]2)c(C(C)(C)C)c1O	=	19.9
CCc1nc2cc(/C=C/C(=O)NO)c(F)cc2c(=O)n1CCc1ccccc1	=	13.4
CN1CCN(c2ccc3nc(-c4ccc5nc(-c6ccc(C(F)(F)F)cc6)[nH]c5c4)[nH]c3c2)CC1	=	22.5
C[C@H](C(=O)N1C(=O)O[C@@H](c2ccccc2)[C@H]1C)[C@H](c1ccccc1)N(Cc1ccccc1)OC(=O)c1ccccc1	>	100
Cc1ccccc1N=Nc1ccc(N=Nc2c(O)ccc3cc(S(=O)(=O)O)cc(S(=O)(=O)O)c23)c(C)c1	>	100
CC(=O)OCC1OC(Sc2nc(-c3ccc(C)cc3)c(C#N)c(=O)n2C2OC(COC(C)=O)C(OC(C)=O)C(OC(C)=O)C2OC(C)=O)C(OC(C)=O)C(OC(C)=O)C1OC(C)=O (stereo not given)	>	100
CCOC(=O)c1c2ccccc2n2c(=O)n(C)nnc12	>	100
CCCCC/C=C1\CCC(CN2CCOCC2)C1=O (stereo not given)	=	32.3
COc1cc2c(C#N)n3c(c2cc1OC)C(=O)C(c1ccccc1)Oc1ccccc1-3 (stereo not given)	=	5.54
O=C(/C=C/c1ccccc1)c1ccc(O)c(CN2CCN(c3cc4c(cc3F)c(=O)c(C(=O)O)cn4C3CC3)CC2)c1	=	26.3
NC(Cc1ccc2oc3cc(=O)c4ccccc4c-3nc2c1)C(=O)O (stereo not given)	=	40.5
COc1cc(C)c(N(C)C(=O)CN(C)C)cc1Nc1nc(Nc2cccc(F)c2C(N)=O)c2cc[nH]c2n1	>	25
CN([N-]C(=O)CC(=O)[N-]N(C)C(=S)c1ccccc1)C(=S)c1ccccc1.[Cu+2]	=	0.271
N#C/C(=C\N1CCNC1=S)C(=O)c1ccc2ccccc2c1	>	100
C/C(=N/NC(=S)Nc1cccc(Cl)c1)c1cccc(/C(C)=N\NC(=S)Nc2cccc(Cl)c2)n1	>	100
Cc1c2ccccc2nc2[nH]c3ccncc3c12	>	100
N[C@H]1CCc2c1nc1c(c2-c2ccccc2)CC[C@@H]1N	=	28.1
O=c1cc2oc3ccc4ccccc4c3cc-2c(=O)[nH]1	=	11.2
CC(C)NCCCNC1=C(Cl)C(=O)c2ccccc2C1=O	=	18.2
CCCCNC(=O)C1=C(C)NC(C)=C(C(=O)NCCCC)C1	>	100
CC(C)(C)OC(=O)N(CCCn1c2c(c3ccccc3c1=O)C(=O)c1ccccc1-2)CCN(CCCn1c2c(c3ccccc3c1=O)C(=O)c1ccccc1-2)C(=O)OC(C)(C)C	>	50
C/C=C1/CN2CC[C@@H]3c4ccccc4N4[C@H](C(=O)OC)[C@H]1C[C@H]2[C@]34/C=C/C1=COC[C@@H]2[C@H]1C[C@H]1c3c(c4ccccc4n3C)C[C@@H]2N1C	=	8.05

* * *

System: SK-OV-3 ovarian
Experiment: NCI tumour cell line growth inhibition, 48 h
Form field: TGI (one value per entry).
Readout label: TGI

Molecule	Result
COC(=O)C(=O)C(C(=O)C(=O)Nc1ccc([N+](=O)[O-])cc1C#N)c1nc2ccc([N+](=O)[O-])cc2[nH]c1=O (centres undefined)	> 100 µM
Cc1c(Cl)c(S(N)(=O)=O)cc(S(N)(=O)=O)c1NC(=O)c1ccc(Cl)cc1	> 100 µM
CC(=O)OCC1OC(Sc2nc(-c3ccc(C)cc3)c(C#N)c(=O)n2C2OC(COC(C)=O)C(OC(C)=O)C(OC(C)=O)C2OC(C)=O)C(OC(C)=O)C(OC(C)=O)C1OC(C)=O (centres undefined)	> 100 µM
COc1cc([N+](=O)[O-])c(S(=O)(=O)O)cc1-n1nc(-c2ccccc2)n[n+]1-c1cc(S(=O)(=O)[O-])c([N+](=O)[O-])cc1OC	> 100 µM
COc1ccc(CNCCCN2C(=O)c3ccc4c5c(ccc(c35)C2=O)C(=O)N(CCCNCCCCNCCCN)C4=O)c(OC)c1OC	83.2 µM
CCC1N2CCCCC2[C@@H]2c3[nH]c4ccccc4c3CCN12 (some centres undefined)	> 100 µM
S=C(S)NCCCn1ccnc1	> 100 µM
C#CCCCCC#CC1CCCC1C1=CC(=O)c2ccccc21 (centres undefined)	28.7 µM
CC(=O)[CH-]C(=O)c1ccccc1.CC(=O)[CH-]C(=O)c1ccccc1.[O-]c1ccc(O)cc1.[O-]c1ccc(O)cc1.[Ti+4]	76.8 µM

* * *

Tested on: CAKI-1 renal
Test: NCI tumour cell line growth inhibition, 48 h
Recorded TGI determines the label; the label ranges are LOW = under 6 µM, MEDIUM = from 6 µM up to 30 µM, HIGH = 30 µM and over

Compound	Tested target	Group
CN1C(=O)NC2(O)c3ccccc3C(=O)C12O (stereo not drawn)	CAKI-1 renal	HIGH
C=CCCC12CCCC(=O)C1Sc1ccc3ccccc3c12 (stereo not drawn)	CAKI-1 renal	MEDIUM
COC(=O)c1c(C(=O)OC)c(C(=O)OC)c(C(=O)OC)c1C(=O)OC	CAKI-1 renal	HIGH
S=C(NNC1=NCCCCN1)Nc1ccccc1	CAKI-1 renal	HIGH
CN([N-]C(=O)CC(=O)[N-]N(C)C(=S)c1ccccc1)C(=S)c1ccccc1.[Cu+2]	CAKI-1 renal	LOW
C/C=C1/CN2CC[C@@H]3c4ccccc4N4[C@H](C(=O)OC)[C@H]1C[C@H]2[C@]34/C=C/C1=COC[C@@H]2[C@H]1C[C@H]1c3c(c4ccccc4n3C)C[C@@H]2N1C	CAKI-1 renal	MEDIUM
CC(=O)OC1C(O)COC(Oc2c(C)c3c4c(c2O)[C@@H](C)CC[C@@H]4[C@@H](C)C[C@H]3C=C(C)C)C1O (stereo partly drawn)	CAKI-1 renal	HIGH
Nc1nonc1-c1noc(-c2nonc2N)[n+]1[O-]	CAKI-1 renal	HIGH
NC(CCc1nc(-c2ccccc2)cs1)C(=O)O (stereo not drawn)	CAKI-1 renal	HIGH
CN(C)CCCNC(=O)c1cc(NC(=O)CCCn2c3ccccc3c3ccccc32)cn1C	CAKI-1 renal	HIGH
COc1ccc(CCNC(=O)Cc2ccccc2CCO)cc1OC	CAKI-1 renal	HIGH
O=C(CN1C(=O)c2ccccc2C1=O)OC1C=CCCC1 (stereo not drawn)	CAKI-1 renal	HIGH
COc1cccc2c1C(=O)c1c(O)c3c(c(O)c1C2=O)C[C@@](O)(C(=O)COC(=O)c1cccnc1)C[C@@H]3OC1CC(N)C(O)C(C)O1 (stereo partly drawn)	CAKI-1 renal	MEDIUM
O=[N+]([O-])/C(Cl)=C(\Sc1ccccc1)C(Cl)=C(Cl)Cl	CAKI-1 renal	LOW
COc1ccc(/C=C/c2cc(=O)cc(/C=C/c3ccc(OC)c(O)c3)o2)cc1O	CAKI-1 renal	MEDIUM
O=C(C1=CCC2(CC1)OCCO2)N(Cc1ccccc1)c1ccccc1I	CAKI-1 renal	HIGH
COc1cc2c(cc1O)CCN[C@@]21CS[C@H]2c3c(OC(C)=O)c(C)c4c(c3C(COC1=O)N1C2C2c3c(cc(C)c(OC)c3O)CC([C@@H]1O)N2C)OCO4 (stereo partly drawn)	CAKI-1 renal	LOW
O=C(Oc1ccccc1Cl)c1cccnc1Nc1ccnc(C(F)(F)F)c1	CAKI-1 renal	HIGH
COc1cc([C@@H]2c3cc4c(cc3[C@@H](NC(=O)c3ccc(C(C)=O)cc3)C3COC(=O)[C@@H]32)OCO4)cc(OC)c1O (stereo partly drawn)	CAKI-1 renal	MEDIUM
Cc1ccc(-c2n[nH]c(=O)n2N)cc1	CAKI-1 renal	HIGH
Nc1nc(N)c2ncn(Cc3c(Cl)cccc3Cl)c2n1	CAKI-1 renal	HIGH
CN1CCN(c2ccc(NC3=C(Cl)C(=O)c4ncccc4C3=O)cc2C(F)(F)F)CC1	CAKI-1 renal	LOW

* * *

Tested on: M19-MEL melanoma
Test: NCI tumour cell line growth inhibition, 48 h

Molecule	TGI
Nc1nc(SCCC/C=C/B(O)O)nc2c1ncn2C1OC(CO)C(O)C1O (centres undefined)	> 243 µM
COc1cccc(C(=O)O)c1Cc1cccc2ccccc12	> 100 µM
CC(=O)N1C(=O)C(=O)c2cc(Cl)ccc21	> 100 µM
CCC1(c2ccncc2)CCC(=O)NC1=O (centres undefined)	> 100 µM

* * *

System: TK-10 renal
Test: NCI tumour cell line growth inhibition, 48 h
Readout label: TGI

Compound	Tested target	Readout label	Result
Cc1occc1C(=S)Nc1ccc(Cl)c(C(=O)OCC2CC2)c1	TK-10 renal	TGI	> 100 µM
O=S(O)CCCCSSCCCCS(=O)(O)=S	TK-10 renal	TGI	> 100 µM
Cc1cc(C)c(S(=O)(=O)Oc2ccccc2[N+](=O)[O-])c(C)c1	TK-10 renal	TGI	> 100 µM
COc1ccc(C(=O)N=C2N(c3ccccc3)C(=Nc3ccccc3)C(=Nc3ccccc3)N2c2ccccc2)cc1	TK-10 renal	TGI	> 61.2 µM
N#C/C(=C/c1cccs1)c1cccs1	TK-10 renal	TGI	> 100 µM
COc1ccc2c3c([nH]c2c1[N+](=O)[O-])C(C)N(C(=O)/C=C/c1ccccc1)CC3 (stereo unspecified)	TK-10 renal	TGI	> 100 µM
